Study Target: T1, cynomolgus (Macaca fascicularis) ST2L extracellular domain with C-terminal His6 tag (Macaca fascicularis (cynomolgus), UniProt Q01638 19-321 (human entry))
T1 construct: also called cyno ST2L-ECD; cynoST2L-ECD
T1 chain: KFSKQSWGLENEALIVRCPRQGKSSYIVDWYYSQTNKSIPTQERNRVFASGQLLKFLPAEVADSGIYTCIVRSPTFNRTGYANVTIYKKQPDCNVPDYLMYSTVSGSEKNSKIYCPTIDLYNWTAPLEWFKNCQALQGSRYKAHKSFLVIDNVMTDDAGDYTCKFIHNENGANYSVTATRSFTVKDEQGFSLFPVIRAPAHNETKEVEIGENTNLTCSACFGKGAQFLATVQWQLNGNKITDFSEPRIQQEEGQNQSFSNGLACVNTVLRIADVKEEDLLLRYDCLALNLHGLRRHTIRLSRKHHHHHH
Procedure Text: ProteOn SPR, mAb captured, ST2L-ECD in solution
Property Measured: pKd
Units for pKd: none; it is -log10 of a concentration expressed in mol/L.

Look up and report measured pKd for this entry: STLM190 (antibody, V domains shown, C2494 HFA mAb: VH STLH195 + VL STLL277 (L8)) VH: QVQLVQSGAEVKKPGASVKVSCKVSAFNIKDDYMHWVRQAPGKGLEWMGRIDPAIGNTEYAPKFQDRVTMTEDTSTDTAYMELSSLRSEDTAVYYCATGDFYAMDYWGQGTLVTVSS VL: DIQLTQSPSFLSASVGDRVTITCITNTDIDDVIHWYQQKPGKAPKLLIYEGNTLRPGVPSRFSGSGSGTEFTLTISSLQPEDFATYYCLQSDNMLTFGQGTKLEIK
8.99

Look up and report measured pKd for this entry: STLM192 (antibody, V domains shown, C2494 HFA mAb: VH STLH195 + VL STLL275 (L5)) VH: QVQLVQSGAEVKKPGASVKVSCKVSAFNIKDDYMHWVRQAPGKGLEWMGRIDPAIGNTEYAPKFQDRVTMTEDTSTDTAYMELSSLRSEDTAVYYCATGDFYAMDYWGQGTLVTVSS VL: DIQMTQSPSSVSASVGDRVTITCITNTDIDDVIHWYQQKPGKAPKLLIYEGNTLRPGVPSRFSGSGSGTDFTLTISSLQPEDFATYYCLQSDNMLTFGQGTKLEIK
9.00

Look up and report measured pKd for this entry: STLM204 (antibody, V domains shown, C2494 HFA mAb: VH STLH194 + VL STLL273 (A20)) VH: EVQLVQSGAEVKKPGATVKISCKVSAFNIKDDYMHWVQQAPGKGLEWMGRIDPAIGNTEYAEKFQGRVTITADTSTDTAYMELSSLRSEDTAVYYCATGDFYAMDYWGQGTLVTVSS VL: DIQMTQSPSSLSASVGDRVTITCITNTDIDDVIHWYQQKPGKVPKLLIYEGNTLRPGVPSRFSGSGSGTDFTLTISSLQPEDVATYYCLQSDNMLTFGQGTKLEIK
9.69

Look up and report measured pKd for this entry: STLM199 (antibody, V domains shown, C2494 HFA mAb: VH STLH194 + VL STLL278 (L2)) VH: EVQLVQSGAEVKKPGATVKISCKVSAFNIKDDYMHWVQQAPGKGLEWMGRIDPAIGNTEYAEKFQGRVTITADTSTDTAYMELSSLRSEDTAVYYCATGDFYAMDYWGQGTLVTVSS VL: EIVMTQSPATLSVSPGERATLSCITNTDIDDVIHWYQQKPGQAPRLLIYEGNTLRPGIPARFSGSGSGTEFTLTISSLQSEDFAVYYCLQSDNMLTFGQGTKLEIK
10.07

Look up and report measured pKd for this entry: STLM193 (antibody, V domains shown, C2494 HFA mAb: VH STLH195 + VL STLL274 (O12)) VH: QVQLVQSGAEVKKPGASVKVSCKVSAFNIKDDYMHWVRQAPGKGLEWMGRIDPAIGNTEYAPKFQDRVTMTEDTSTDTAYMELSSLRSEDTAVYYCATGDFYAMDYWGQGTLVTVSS VL: DIQMTQSPSSLSASVGDRVTITCITNTDIDDVIHWYQQKPGKAPKLLIYEGNTLRPGVPSRFSGSGSGTDFTLTISSLQPEDFATYYCLQSDNMLTFGQGTKLEIK
9.03
